Kindly supply the reported GI50 values for the records listed here.
# Tested on: SN12C
# method summary: NCI tumour cell line growth inhibition, 48 h
The source made the active and inactive calls. No stated cut-off is given here; in the data, active = GI50 up to about 1.1 µM and inactive = higher. Where a SMILES comes first, the peptide text is derived from it. The star is where a group is joined. Boc = CC(C)(C)OC(=O)*

Cc1ccc(S(=O)(=O)N/N=C/C(Br)=C(/Br)C(=O)O)cc1: 9.93 µM (inactive)
O=C1C=CC(=O)C(CNc2ccc(C(=O)OCc3ccccc3)cc2)=C1: 6.18 µM (inactive)
Cn1c(=O)c2[nH]c(C3CC(=O)CC(c4nc5c([nH]4)c(=O)n(C)c(=O)n5C)N3)nc2n(C)c1=O (stereo not given): > 100 µM (inactive)
O=C(CC1(O)C(=O)Nc2c(Cl)cc(Cl)cc21)c1ccc2ccccc2c1 (stereo not given): 10.4 µM (inactive)
NC1=CN(CCCO)C2=N/C(=C\c3ccccc3)C(=O)N12: > 100 µM (inactive)
COC(=O)C(C)NC(=O)C(CCSC)NC(=O)C(Cc1ccccc1)NC(=O)OC(C)(C)C (stereo not drawn) (Boc-Phe-Met-Ala-OMe; configuration not given here): > 100 µM (inactive)
Nc1ccc(CCN2CCN(CCCc3ccccc3)CC2)cc1: > 100 µM (inactive)
C=C(COC(C)=O)CC(/C=C(\C)CC/C=C(\C)CO)OC(C)=O (stereo not given): > 100 µM (inactive)

Need GI50 for each of these compounds.
1. CCC12CCCN(Cc3ccccc3)C1c1c(n(C)c3ccccc13)C(CO)C2 (stereo not given)
2. COC(=O)C(Cc1c(C2Nc3ccccc3C2CC(NC(C)=O)C(=O)OC)[nH]c2ccccc12)NC(C)=O (stereo not given)

42.6 µM (inactive)
> 100 µM (inactive)

Taken from ChEMBL document CHEMBL1201862.
